readout: melting point

# example entries with known answers
CCOC1CCC(=O)N1S(=O)(=O)c1ccccc1 (stereo not given) = 112 to 113 °C
CN1CCCCC1CCc1ccccc1NC(=O)c1ccc(O)cc1 (stereo not given) = 178 to 182 °C
CC(C)C=CC1(C(F)(F)F)OCC(=O)Nc2ccc(Cl)cc21 (stereo not given) = 148 to 149 °C
CCN1CCC(n2nc(-c3c(-c4ccccc4)nn4ccccc34)ccc2=O)CC1 = 134 to 135 °C
CC(C)NCCNC(=O)c1ccc(OCc2ccc(-c3ccccc3)cc2)cc1 = 150 to 154 °C
CCOC(=O)C1=C(NC(C)=O)C(=O)O[C@@H]1C = 119 to 122 °C

query: Give the reported melting point for this compound. COCOC1=C(C(=O)OC)CC(C#N)(c2ccc(OC)c(OCC3CC3)c2)CC1 (stereo not given)
result: 98 to 99 °C

query: Give the reported melting point for this compound. COc1nc(-c2cc(C)c(OCCCc3cc(C)no3)c(C)c2)no1
result: 64.5 to 65.5 °C

query: Give the reported melting point for this compound. CCC(C(C)=CC(CNC(=O)c1ccc(N)nc1)=NO)[N+](=O)[O-] (stereo not given)
result: 190 to 191 °C

query: Give the reported melting point for this compound. Cc1cc(OCc2ccc(-c3ccc(C(F)(F)F)cc3)nc2)ccc1OC(C)(C)C(=O)O
result: 149 to 151 °C

----------
A collection of compounds and their measured melting point

# example entries with known answers
Nc1ncc(-c2ccccc2)nc1Sc1ccc(Cl)cc1 = 158 to 160 °C
CN(C)C=Cc1ccc([N+](=O)[O-])c2[nH]ncc12 = 255 °C
CC(C)(C)c1cc(C2SC(CC(=O)N3CCCC3)C(=O)N2CCCCl)cc(C(C)(C)C)c1O (stereo not given) = 193 to 194 °C
CCCc1nc(C(C)(C)O)c(C(=O)O)n1Cc1ccc(-c2ccccc2C(=O)C(=O)O)cc1 = 183 to 185 °C
CCC(C)(CC)c1nnc(NC(=S)c2c(OC)cccc2OC)s1 = 202 to 204 °C

query: Give the reported melting point for this compound. CC(C)(C)NS(=O)(=O)c1ccc(Cl)c(CBr)c1Cl
result: 157 °C

query: Give the reported melting point for this compound. O=C1c2ccccc2C2(CCCC2)C(=O)N1CCO
result: 76 to 77 °C

query: Give the reported melting point for this compound. CNc1nc(C)c(-c2nc3ccccc3c(=O)n2-c2cccc(C)c2)s1
result: > 275 °C

query: Give the reported melting point for this compound. CNC(=O)n1nc(Oc2c(Cl)cc(C(F)(F)F)cc2[N+](=O)[O-])cc1C
result: 140 to 142 °C

query: Give the reported melting point for this compound. N#CC(C#N)=C1N(CCCN2CCc3ccccc3C2)CCN1CCN1CCCCC1
result: 79 to 81 °C

----------
A collection of compounds and their measured melting point

# example entries with known answers
O=C(O)C(=O)c1ccc(OCCCn2c(=O)c3ccccc3c3ccccc32)cc1 = 202 to 204 °C
COc1cc2c(cc1[N+](=O)[O-])NC(=O)CN(CC1CC1)C2 = 178 °C
COCCc1cc([N+](=O)[O-])cc([N+](=O)[O-])c1 = 65 °C
COc1cc(C2OCCO2)cc(I)c1O = 120 to 121 °C
c1cncc(CCc2ccc(C3OCCO3)cc2)c1 = 46 to 47 °C

query: Give the reported melting point for this compound. Oc1nc2cc(F)c(F)cc2nc1O
result: > 310 °C

query: Give the reported melting point for this compound. Cc1cc(S(N)(=O)=O)cs1
result: 102 to 104 °C

query: Give the reported melting point for this compound. CCOC(=O)C=Cc1cc(OCc2ccccc2)ccc1-c1ccc(-c2cccc(C)c2)c(C(F)F)c1
result: 124 to 126 °C

query: Give the reported melting point for this compound. Cc1cc2c(cc1N1CCCCC1)OC(=O)C2C (stereo unspecified)
result: 61 to 63 °C

query: Give the reported melting point for this compound. CC1(C)N=C(c2ccc(N)cc2)CC1c1ccncc1 (stereo unspecified)
result: 175 to 178 °C

query: Give the reported melting point for this compound. Cc1nn(C)c2c(=O)n(C)c(C)nc12
result: 190 to 192 °C
